# target: Protein arginine N-methyltransferase 1 (Homo sapiens) (UniProt Q99873)
# Sequence (Q99873 whole entry, looked up): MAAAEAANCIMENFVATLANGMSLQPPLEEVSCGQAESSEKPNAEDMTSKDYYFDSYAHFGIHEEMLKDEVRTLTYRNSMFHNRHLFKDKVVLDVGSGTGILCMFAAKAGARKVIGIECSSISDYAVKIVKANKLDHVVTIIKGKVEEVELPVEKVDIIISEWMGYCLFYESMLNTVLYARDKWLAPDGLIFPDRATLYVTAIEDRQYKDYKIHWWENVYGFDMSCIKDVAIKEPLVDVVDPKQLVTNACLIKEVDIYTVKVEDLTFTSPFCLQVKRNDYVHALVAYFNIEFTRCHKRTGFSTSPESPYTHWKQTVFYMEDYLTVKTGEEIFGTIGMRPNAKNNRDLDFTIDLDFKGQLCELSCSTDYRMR
# assay name: human PRMT1 activity-probe blockers – biochemical, fluorescence polarization, primary screen (AID 652257)
# measurement context: recombinant PRMT1, activity-based probe fluorescence polarization; at 2.79 µM
Among all 370,000 compounds or so, about 4,800 (1.3%) were called active.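 The calls were made as follows: active = inhibition above about 21% made by adding two undisclosed values (limit read from the data); inactive = the rest.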 The list comes from a sample in which actives are over-represented; it also holds close analogues and randomly drawn compounds.
Form entry, call: pick from 1 (yes) = active, 0 (no) = inactive

Any idea what this test logged for CC(C)(C)c1ccc(C(CC(=O)O)NS(=O)(=O)Cc2ccccc2)cc1 (centres undefined) ? 0 (no)

Any idea what this test logged for CCc1ccc(-n2c(=S)sc3c(=O)n(-c4ccccc4OC)c(=S)[nH]c32)cc1 ? 1 (yes)

Any idea what this test logged for COc1cc2[nH]c(=S)n(Cc3ccc(F)cc3)c(=O)c2cc1OC ? 0 (no)

Any idea what this test logged for CC(=O)NCCc1ccc(S(=O)(=O)N(C)C2CCS(=O)(=O)C2)cc1 (centres undefined) ? 0 (no)

Any idea what this test logged for CCCCCCN1CCS(=O)(=O)N(Cc2ccc(C(F)(F)F)cc2)C(C(=O)OC)C1 (centres undefined) ? 0 (no)

Any idea what this test logged for CC(=O)NC1C(Oc2ccc(C=O)cc2)OC(COC(C)=O)C(OC(C)=O)C1OC(C)=O (centres undefined) ? 0 (no)

Any idea what this test logged for C[C@@H]1ON(C)[C@H]2C[C@H]3c4[nH]c5cccc(-c6ccc7c(c6)OCO7)c5c4CCN3C[C@@H]12 ? 0 (no)

Any idea what this test logged for COc1cccc(N2C(=O)CC(N3CCc4ccccc4C3)C2=O)c1 (centres undefined) ? 0 (no)

Any idea what this test logged for O=C(CN1CCc2ccccc21)NC(c1ccccc1)c1ccccc1 ? 0 (no)

Any idea what this test logged for COC(=O)[C@]1(Cc2ccccc2)NC=C(C(=O)c2ccccc2)[C@@H]1c1cccc(OC)c1 ? 0 (no)

Any idea what this test logged for COc1ccc(S[C@]2(C(=O)N(C)C)CC(=O)N(c3ccc(OC)cc3)[C@@H]2c2ccc(OC)cc2)cc1 ? 0 (no)

Any idea what this test logged for Cc1ccnc(-n2sc3ccccc3c2=O)n1 ? 1 (yes)

Any idea what this test logged for COc1ccc(Cl)cc1-n1c(=S)sc2c(=O)n(-c3ccc(F)cc3)c(SCC(=O)O)nc21 ? 0 (no)

Any idea what this test logged for COc1ccc([C@H]2N[C@]3(CCCN(CC4CCCCC4)C3=O)[C@H]3C(=O)N(C)C(=O)[C@@H]23)cc1 ? 0 (no)

Any idea what this test logged for O=C(CSc1nc2c(c(=O)[nH]1)CCCC2)N1CCCCC1 ? 0 (no)

Any idea what this test logged for CCC(=O)Nc1ccc2c(c1)C(=O)N(C)[C@@H]1CC[C@@H](CC(=O)NCCc3ccccc3)O[C@H]1CO2 ? 0 (no)

Any idea what this test logged for CCCNC(=O)NCc1ccc(N2CCCC2=O)cc1 ? 0 (no)

Any idea what this test logged for COc1ccccc1C(=O)CSc1nnc(-c2ccccn2)n1-c1ccccc1 ? 0 (no)

Any idea what this test logged for Cc1ccc(N)cc1CN1CCN(c2ncc(Cc3ccccc3)cn2)CC1 ? 0 (no)

Any idea what this test logged for CCN(C(=O)c1ccc(Br)cc1)c1ccccc1 ? 0 (no)

Any idea what this test logged for CCOC(=O)C1CCN(C(=O)C(C)(C)NC(=O)Nc2ccc(F)c(F)c2)CC1 ? 0 (no)

Any idea what this test logged for COc1ccc(Cl)cc1-c1cc(C(=O)Nc2cc(OC)c(OC)c(OC)c2)[nH]n1 ? 0 (no)

Any idea what this test logged for CCOC(=O)C1(Cc2cccc(OC)c2)CCCN(C(=O)CCSC)C1 (centres undefined) ? 0 (no)

Any idea what this test logged for COC(=O)c1ccccc1SC1CC(=O)N(c2cccc(C)c2)C1=O (centres undefined) ? 1 (yes)

Any idea what this test logged for COc1cc(NC(=O)C2CCCN(S(=O)(=O)c3ccc(C(C)(C)C)cc3)C2)cc(OC)c1 (centres undefined) ? 0 (no)

Any idea what this test logged for CCc1cccc(CC)c1N1C(=O)CC(Sc2ccccc2N)C1=O (centres undefined) ? 0 (no)

Any idea what this test logged for Cc1cc(NS(=O)(=O)c2ccc(NC(=O)CSc3nnc(-c4ccc(C(C)(C)C)cc4)n3Cc3ccco3)cc2)nc(C)n1 ? 0 (no)

Any idea what this test logged for C[C@@H](NC(=O)OC(C)(C)C)c1nnc(S(=O)(=O)Cc2ccccc2)o1 ? 1 (yes)

Any idea what this test logged for O=C(Cc1ccc(-c2ccccc2)cc1)NC(c1ccccc1)c1ccccc1 ? 1 (yes)

Any idea what this test logged for Cc1ccc(NC(=O)Cc2cccc(F)c2)c(S(=O)(=O)N2CCOCC2)c1 ? 0 (no)

Any idea what this test logged for Cc1ccc(-c2nc(C3CCCN(S(=O)(=O)c4ccc(Br)s4)C3)no2)cc1 (centres undefined) ? 0 (no)

Any idea what this test logged for Cc1ccn(C(CC(=O)c2ccc(Br)cc2)C(=O)O)n1 (centres undefined) ? 1 (yes)

Any idea what this test logged for CCN(CC)C(=O)C(C)N1c2cccc3cccc(c23)S1(=O)=O (centres undefined) ? 0 (no)

Any idea what this test logged for CSc1c(SCc2ccccc2)cnn(Cc2ccccc2)c1=O ? 1 (yes)
